Target: T1, human angiotensin AT2 receptor (human, UniProt P50052 1-363)
T1 sequence (looked up): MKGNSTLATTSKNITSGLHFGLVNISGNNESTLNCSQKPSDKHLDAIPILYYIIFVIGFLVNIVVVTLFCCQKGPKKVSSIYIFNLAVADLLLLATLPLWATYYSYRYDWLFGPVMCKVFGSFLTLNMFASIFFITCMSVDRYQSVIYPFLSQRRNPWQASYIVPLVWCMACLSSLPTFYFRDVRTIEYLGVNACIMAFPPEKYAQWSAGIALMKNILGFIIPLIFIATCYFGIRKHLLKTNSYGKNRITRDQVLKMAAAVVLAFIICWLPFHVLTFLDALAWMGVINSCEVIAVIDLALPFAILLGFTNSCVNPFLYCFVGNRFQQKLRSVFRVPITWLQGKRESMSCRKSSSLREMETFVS
pIC50: −log10 of the molar value. * marks the point of attachment. Nicotinoyl = O=C(c1cccnc1)*

binder | pIC50
Nicotinoyl-YKHPI-OH (not fully specified (residue 2), Modified peptide ligand of the AT2 receptor and radioligand of the assay; also called CPG42112A) [CGP-42112A] | 10.62
